Reported Property: melting point

| Compound | Reported |
| --- | --- |
| O=C(NC1C=CC(O)C1)c1cccnc1 (stereo not drawn) [Compound 13b] | 125 to 127 °C |
| O=C(NC1C=CC(O)CC1)c1ccncc1 (stereo not drawn) [Compound 14c] | 245 to 250 °C (dec.) |
| O=C(NC1C=CC(O)CC1)c1ccc2ccccc2n1 (stereo not drawn) [Compound 14d] | 80 to 84 °C |
| O=C(NC1C=CC(O)C1)c1ccc2ccccc2n1 (stereo not drawn) [Compound 13d] | 89 to 90 °C |
| O=C(NC1C=CC(O)C1)c1ccncc1 (stereo not drawn) [Compound 13c] | 170 to 175 °C |
| O=C(NC1C=CC(O)CC1)c1cccnc1 (stereo not drawn) [Compound 14b, N-(4-Hydroxycyclohex-2-enyl)nicotinamide] | 95 to 99 °C |
